test summary: Cytotoxicity of flavonoids in Vero cells by MTS assay
Type: cell-based, African green monkey
condition notes: African green monkey; Vero cells, MTS assay, 48 h, mean ± SEM; read-out: CC50 (half maximum cytotoxic concentration)
measurement kind: CC50 at 48 h (µg/mL)

molecule | quantity unit | quantitative result
O=c1cc(-c2ccccc2)oc2cc(O)c(O)c(O)c12 [Baicalein] | µg/mL | 271

###

test summary: Cytotoxicity of flavonoids in Vero cells by MTS assay
Assay type: cell-based, African green monkey
condition notes: African green monkey

structure as smiles | quantity unit | CC50 at 48 h
O=C(O)[C@H]1O[C@@H](Oc2cc3oc(-c4ccccc4)cc(=O)c3c(O)c2O)[C@H](O)[C@@H](O)[C@@H]1O | µg/mL | 54.6
